- measured_target: human σ1 receptor and human μ-opioid receptor
- measurement_protocol: Human σ1 receptor and human μ-opioid receptor radioligand assays (μ and σ1 dual binding)
- measurement_setup: joint class for Ki at σ1 ([3H](+)-pentazocine, transfected HEK-293 membranes) and Ki at μ-opioid ([3H]-DAMGO, transfected CHO-K1 membranes)
outcome_measure: Ki

Entry CCC(=O)N(CCN1CCC(N(C)Cc2ccccc2)C1)c1cccc(C(F)(F)F)n1 (stereo not drawn) — recorded Ki = ≥ 500 nM

Entry CCC(=O)N(CCN1CCC(N(C)Cc2ccccc2)C1)c1ccccc1 (stereo not drawn) — recorded Ki = < 500 nM

Entry CCOCCN(C)C1CCN(CCN(C(=O)CC)c2cccc(C(F)(F)F)n2)C1 (stereo not drawn) [Example 16] — recorded Ki = ≥ 500 nM

Entry CCOCCN(C)C1CCN(CCN(C(=O)CC)c2cccc(C(F)(F)F)n2)C1 (stereo not drawn) [Example 17] — recorded Ki = ≥ 500 nM

Entry CCC(=O)N(CCN1CCC(N(C)CC(C)C)C1)c1cccc(C(F)(F)F)n1 (stereo not drawn) — recorded Ki = ≥ 500 nM

Entry CCC(=O)N(CCN1CC[C@@H](N(C)Cc2ccccc2)C1)c1ccccc1 — recorded Ki = < 500 nM
